- MEASUREMENT TARGET: DDR2 (human)
- PROTOCOL: KINOMEscan competition binding
- APPLIED CONDITIONS: compound 10.0 µM
REPORTED PROPERTY: kinase still bound, per cent of control (%)
Kindly provide the numeric value in % only, without the unit symbol.

I'd like to know its kinase still bound, per cent of control. The compound in question is N#CCNC(=O)c1ccc(-c2ccnc(Nc3ccc(N4CCOCC4)cc3)n2)cc1
100

I'd like to know its kinase still bound, per cent of control. The compound in question is COc1cc(C(=O)N2CCC(N3CCN(C)CC3)CC2)ccc1Nc1ncc2c(n1)N(C)c1ccccc1C(=O)N2C
100

I'd like to know its kinase still bound, per cent of control. The compound in question is C[C@@H](Oc1cc(-c2cnn(C3CCNCC3)c2)cnc1N)c1c(Cl)ccc(F)c1Cl
0

I'd like to know its kinase still bound, per cent of control. The compound in question is NC(=O)Nc1cc(-c2cccc(F)c2)sc1C(=O)N[C@@H]1CCCNC1
0

I'd like to know its kinase still bound, per cent of control. The compound in question is CCN1CCN(C(=O)Cc2ccc(Nc3ncc(F)c(Nc4ccc(C(=O)Nc5ccccc5Cl)cc4)n3)cc2)CC1
100

I'd like to know its kinase still bound, per cent of control. The compound in question is COCC(=O)NC/C=C/c1ccc2ncnc(Nc3ccc(Oc4ccc(C)nc4)c(C)c3)c2c1
100

I'd like to know its kinase still bound, per cent of control. The compound in question is C=CC(=O)Nc1ccc(CN(C(=O)Nc2c(Cl)c(OC)cc(OC)c2Cl)c2cc(Nc3ccc(N4CCN(C)CC4)cc3)ncn2)cc1
100

I'd like to know its kinase still bound, per cent of control. The compound in question is Cc1n[nH]c2ccc(-c3cncc(OC[C@@H](N)Cc4c[nH]c5ccccc45)c3)cc12
100

I'd like to know its kinase still bound, per cent of control. The compound in question is COc1cc2ncn(-c3cc(OCc4ccccc4C(F)(F)F)c(C(N)=O)s3)c2cc1OC
81
